Source listed as patent US10793579B2.

Tested on: R848-induced TNFα production by human peripheral blood mononuclear cells (PBMCs)
Assay: R848 Induced TNFα in Human PBMC Assay
Assay type: cell-based
Details: human PBMC, absence of serum; read-out: R848-induced TNFa PBMC IC50
pIC50: −log10 of the molar value.

MOLECULE: COc1cc2c(OC[C@H]3NC(=O)[C@@H]4[C@@H](CF)[C@@H]43)nccc2cc1C(N)=O
pIC50: 7.46
//
MOLECULE: COc1cc2c(OC[C@H]3NC(=O)[C@H]4C3[C@H]4CF)nccc2cc1C(N)=O (stereo in doubt)
pIC50: 5.22
